// cross-study collection: pIC50 for UniProtKB P05177
pIC50: −log10 of the molar value.
Assign class by pIC50: not lower than 5 means YES; lower than 5 means NO.

>>> category_label("COc1ccc2cc(-c3ccc(O)c(F)c3)c(=O)oc2c1")
"NO"
>>> category_label("COc1ccc2oc(=O)c(-c3ccc(N(C)C)cc3)cc2c1")
"NO"
>>> category_label("COc1cc(OC)cc(-c2cc3cc(OC)ccc3oc2=O)c1")
"NO"
>>> category_label("COc1cccc(-c2cc3cc(OC)ccc3oc2=O)c1")
"YES"
>>> category_label("COc1ccc2oc(=O)c(-c3ccc(O)c(F)c3)cc2c1")
"YES"
>>> category_label("CN(C)c1ccc(-c2cc3ccc(O)cc3oc2=O)cc1")
"NO"
>>> category_label("COc1ccc2oc(=O)c(-c3ccc(F)cc3)cc2c1")
"YES"
>>> category_label("CC(C)=CCC[C@](C)(O[C@@H]1O[C@H](CO[C@@H]2OC[C@@H](O)[C@H](O)[C@H]2O)[C@@H](O)[C@H](O)[C@H]1O)[C@H]1CC[C@]2(C)[C@@H]1[C@H](O)C[C@@H]1[C@@]3(C)CC[C@H](O[C@@H]4O[C@H](CO)[C@@H](O)[C@H](O)[C@H]4O[C@@H]4O[C@H](CO)[C@@H](O)[C@H](O)[C@H]4O)C(C)(C)[C@@H]3CC[C@]12C")
"NO"
>>> category_label("COc1ccc(-c2cc3cc(OC(C)=O)ccc3oc2=O)cc1")
"NO"
>>> category_label("Cc1ccc2oc(=O)c(-c3ccc(C(F)(F)F)cc3)cc2c1")
"NO"
>>> category_label("COc1ccc2oc(=O)c(-c3ccc(OC(F)(F)F)cc3)cc2c1")
"YES"
>>> category_label("Cc1ccc2oc(=O)c(-c3ccc(F)cc3)cc2c1")
"YES"
>>> category_label("COc1ccc2cc(-c3cc(F)c(F)cc3F)c(=O)oc2c1")
"YES"
>>> category_label("CC(=O)Oc1ccc2cc(-c3ccc(OC(F)(F)F)cc3)c(=O)oc2c1")
"NO"
>>> category_label("C#Cc1cn([C@@H]2S[C@H](CO)[C@@H](O)[C@H]2O)c2ncnc(N)c12")
"NO"
